Tested on: HeLa-CD4 cells
Test: MTT mitochondrial metabolic activity (cell viability)
Format: cell-based
Assay Endpoint: CC50 (µM)

compound="CN(C)[C@H]1C[C@@]23CC[C@@]4(O2)C(=CC[C@]2(C)C(c5ccc6ccncc6c5)=CC[C@H]24)C=C3[C@@H](O)[C@@H]1O [dCA, didehydro-Cortistatin A]" u=µM reported_measurement=20

---

Tested on: PBMCs
Test: Viability of uninfected PBMCs (MTT, ViViD/Annexin V)
Assay type: cell-based, human
Assay Endpoint: CC50 (µM)

molecule="CN(C)[C@H]1C[C@@]23CC[C@@]4(O2)C(=CC[C@]2(C)C(c5ccc6ccncc6c5)=CC[C@H]24)C=C3[C@@H](O)[C@@H]1O [dCA, didehydro-Cortistatin A]" tgt=PBMCs u=µM reported_measurement=100

These entries and their values trace back to patent US9682994B2.
